All values here come from patent US20230174523A1.

Overview of reported EC50 across a group of compounds:
Molecular target: TRAP1 enzyme (Homo sapiens)
Sequence (Q12931 60-704): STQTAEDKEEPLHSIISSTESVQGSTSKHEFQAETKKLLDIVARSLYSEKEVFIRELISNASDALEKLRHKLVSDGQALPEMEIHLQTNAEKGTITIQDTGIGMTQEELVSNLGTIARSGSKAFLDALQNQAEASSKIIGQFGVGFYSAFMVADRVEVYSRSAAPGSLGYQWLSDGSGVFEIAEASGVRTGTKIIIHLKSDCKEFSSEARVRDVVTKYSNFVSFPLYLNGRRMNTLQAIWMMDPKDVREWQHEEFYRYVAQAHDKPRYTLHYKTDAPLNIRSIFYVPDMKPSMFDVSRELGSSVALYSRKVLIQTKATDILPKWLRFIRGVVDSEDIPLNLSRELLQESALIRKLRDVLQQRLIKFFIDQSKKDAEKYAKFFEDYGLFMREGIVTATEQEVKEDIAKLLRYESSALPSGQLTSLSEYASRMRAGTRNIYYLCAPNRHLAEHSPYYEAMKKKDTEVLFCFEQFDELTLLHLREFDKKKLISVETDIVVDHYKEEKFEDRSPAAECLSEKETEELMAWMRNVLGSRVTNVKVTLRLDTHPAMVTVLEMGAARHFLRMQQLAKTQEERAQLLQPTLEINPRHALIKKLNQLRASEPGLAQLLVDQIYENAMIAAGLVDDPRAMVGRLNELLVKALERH
Test: ADP Glo assay of TRAP1 ATPase activity
Type: biochemical
Conditions: TRAP1 ATPase activation, 150 nM Trap1, 20 μM ATP, geometric mean; read-out: ADP GLO DRC: GeoMean EC50

INSERT INTO measurements (compound, reported) VALUES
  ('COc1ccc(NC(=O)c2ccc3ncn(C)c3c2)cc1S(=O)(=O)Nc1c(C)cccc1C [Compound 1238]', '20 to 100 µM'),
  ('COc1ccc(NC(=O)c2cn(C)c3ncccc23)cc1S(=O)(=O)Nc1c(C)cccc1C [Compound 1108]', '10 to 20 µM'),
  ('COc1ccc(NC(=O)c2ncccc2C(=O)c2ccccc2)cc1S(=O)(=O)Nc1c(C)cccc1C [Compound 1275]', '20 to 100 µM'),
  ('CCc1ccc(NC(=O)c2cccc3ncn(C)c23)cc1S(=O)(=O)Nc1c(C)cccc1C [Compound 1353]', '10 to 20 µM'),
  ('COc1ccc(NC(=O)c2ccnn2C(C)C)cc1S(=O)(=O)Nc1c(C)cccc1C [Compound 1104]', '10 to 20 µM'),
  ('COc1ccc(NC(=O)c2ncc(-c3ccccc3)o2)cc1S(=O)(=O)Nc1c(C#N)cccc1C(F)(F)F [Compound 1343]', '20 to 100 µM');

Measured on TRAP1 enzyme (Homo sapiens), COc1ccc(NC(=O)c2cccc3cnccc23)cc1S(=O)(=O)Nc1c(C)cccc1C [Compound 1224] has a documented EC50 of 20 to 100 µM

Tested on TRAP1 enzyme (Homo sapiens), the item COc1ccc(NC(=O)c2cccc(N3CCCC3=O)c2)cc1S(=O)(=O)Nc1c(C)cccc1C [Compound 1123] showed EC50 equal to 10 to 20 µM

Hey, TRAP1 enzyme (Homo sapiens) data for COc1ccc(NC(=O)c2cnc(OC)c(C(F)(F)F)c2)cc1S(=O)(=O)Nc1c(C)cccc1C [Compound 1073] : EC50 came out at < 10 µM

// EC50 (TRAP1 enzyme (Homo sapiens)) for COc1ccc(NC(=O)c2ccc3cnn(C)c3c2)cc1S(=O)(=O)Nc1c(C)cccc1C [Compound 1370] = 20 to 100 µM

----------
Target: TRAP1 enzyme (Homo sapiens, UniProt Q12931)
Assay: ADP Glo assay of TRAP1 ATPase activity
Format: biochemical
Conditions: TRAP1 ATPase activation, 150 nM Trap1, 20 μM ATP, geometric mean; read-out: ADP GLO DRC: GeoMean EC50
READOUT_LABEL: EC50

INSERT INTO assay_data (compound_structure, readout_label, reported) VALUES
  ('COc1ccc(NC(=O)c2ncc(-c3ccccc3)o2)cc1S(=O)(=O)Nc1c(C)csc1C', 'EC50', '< 10 µM'),
  ('Cc1cc(Cl)nc(Cl)c1C(=O)Nc1ccc(F)c(S(=O)(=O)Nc2ccc(Cl)cc2)c1', 'EC50', '20 to 100 µM'),
  ('COc1ccc(NC(=O)c2cnc(-c3ccccc3)[nH]2)cc1S(=O)(=O)N(CCCCCCN)c1ccc(Br)cc1', 'EC50', '< 10 µM');

Turning to the following compound.
Quick note, EC50 for "COc1ccc(NC(=O)c2cccc(-c3ccnn3C)c2)cc1S(=O)(=O)Nc1c(C)cccc1C" landed at < 10 µM

----------
Molecular target: TRAP1 enzyme (Homo sapiens)
Test: ADP Glo assay of TRAP1 ATPase activity
Format: biochemical
Conditions: read-out: ADP GLO DRC: Mean Emax
// values below are reported Emax

INSERT INTO assay_data (compound_structure, reported) VALUES
  ('CCc1ncsc1C(=O)Nc1ccc(OC)c(S(=O)(=O)Nc2c(C)cccc2C)c1', '160 to 199%'),
  ('COc1ccc(NC(=O)c2cc(-c3ccnn3C)c(Cl)s2)cc1S(=O)(=O)Nc1c(C)cccc1C', '160 to 199%'),
  ('COc1ccc(NC(=O)c2nc3c(C)cccc3s2)cc1S(=O)(=O)Nc1c(C)cccc1C', '160 to 199%');

"COc1ccc(NC(=O)c2cnc(-c3ccccc3C)[nH]2)cc1S(=O)(=O)Nc1ccc(Cl)cc1" tested on TRAP1 enzyme (Homo sapiens) gave Emax: 200 to 300%

Result for "COc1ccc(NC(=O)c2csc3c2CCCC3)cc1S(=O)(=O)Nc1c(C)cccc1C" , tested on TRAP1 enzyme (Homo sapiens), Emax: 160 to 199%

Measured on TRAP1 enzyme (Homo sapiens), "COc1ccc(NC(=O)c2ccnc(Cl)c2C)cc1S(=O)(=O)Nc1c(C)cccc1C" has a documented Emax of 160 to 199%

----------
EC50 by entry:
Biological target: TRAP1 enzyme (Homo sapiens, UniProt Q12931)
Assay: ADP Glo assay of TRAP1 ATPase activity
Assay type: biochemical
Conditions: TRAP1 ATPase activation, 150 nM Trap1, 20 μM ATP, geometric mean; read-out: ADP GLO DRC: GeoMean EC50

Study these solved cases before continuing.
INSERT INTO measurements (molecule, readout_label, reported) VALUES
  ('COc1ccc(NC(=O)c2ncccc2C)cc1S(=O)(=O)Nc1c(C)cccc1C [Compound 1167]', 'EC50', '10 to 20 µM'),
  ('COc1ccc(NC(=O)c2ccc(C)nc2OC)cc1S(=O)(=O)Nc1ccc(Cl)cc1 [Compound 1963]', 'EC50', '20 to 100 µM'),
  ('O=C(Nc1cccc(S(=O)(=O)Nc2ccc(Cl)cc2)c1)c1ncc(-c2ccccc2)o1 [Compound 438]', 'EC50', '10 to 20 µM');

# context switch: different molecule, same EC50
// EC50 value for COc1ccc(NC(=O)c2onc3c2CCCC3)cc1S(=O)(=O)Nc1c(C)cccc1C [Compound 1056] : 20 to 100 µM

----------
Catalogue of molecules with associated EC50
Target: TRAP1 enzyme (Homo sapiens, UniProt Q12931)
Sequence (Q12931 60-704): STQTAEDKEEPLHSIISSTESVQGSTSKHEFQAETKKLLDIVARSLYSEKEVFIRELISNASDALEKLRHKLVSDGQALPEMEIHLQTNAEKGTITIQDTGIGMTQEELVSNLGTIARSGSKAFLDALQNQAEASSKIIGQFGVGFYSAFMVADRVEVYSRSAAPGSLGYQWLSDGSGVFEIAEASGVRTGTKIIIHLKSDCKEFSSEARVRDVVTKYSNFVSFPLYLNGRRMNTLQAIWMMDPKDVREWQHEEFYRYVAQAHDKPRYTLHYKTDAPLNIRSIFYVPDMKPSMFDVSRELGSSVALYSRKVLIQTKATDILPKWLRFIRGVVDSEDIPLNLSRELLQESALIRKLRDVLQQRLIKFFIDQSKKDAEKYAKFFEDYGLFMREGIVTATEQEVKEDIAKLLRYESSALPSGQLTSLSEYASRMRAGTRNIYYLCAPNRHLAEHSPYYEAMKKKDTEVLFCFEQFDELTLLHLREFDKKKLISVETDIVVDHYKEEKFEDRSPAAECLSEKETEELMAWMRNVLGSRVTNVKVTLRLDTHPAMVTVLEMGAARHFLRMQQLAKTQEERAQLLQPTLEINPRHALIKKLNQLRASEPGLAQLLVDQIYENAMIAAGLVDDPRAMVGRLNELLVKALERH
Assay: ADP Glo assay of TRAP1 ATPase activity
Type: biochemical
Settings: TRAP1 ATPase activation, 150 nM Trap1, 20 μM ATP, geometric mean; read-out: ADP GLO DRC: GeoMean EC50

Worked set:
INSERT INTO results (molecule, readout_label, reported) VALUES
  ('COc1ccc(NC(=O)c2csc(-c3ccccc3)n2)cc1S(=O)(=O)Nc1c(C)cccc1C [Compound 1116]', 'EC50', '< 10 µM'),
  ('Cc1oc(C)c(C(=O)Nc2ccc(F)c(S(=O)(=O)Nc3ccc(Cl)cc3)c2)c1C [Compound 740]', 'EC50', '10 to 20 µM'),
  ('COc1ccc(NC(=O)c2cccc3nc(C)sc23)cc1S(=O)(=O)Nc1c(C)cccc1C [Compound 1017]', 'EC50', '< 10 µM'),
  ('COc1ccc(NC(=O)c2nn(C)c3c2CCC3)cc1S(=O)(=O)Nc1c(C)cccc1C [Compound 1010]', 'EC50', '10 to 20 µM'),
  ('CCn1nc(C(C)C)cc1C(=O)Nc1ccc(F)c(S(=O)(=O)Nc2ccc(Cl)cc2)c1 [Compound 1282]', 'EC50', '20 to 100 µM');

Lab note: measured EC50 of COc1ccc(NC(=O)c2ccc(-n3cccn3)cc2Cl)cc1S(=O)(=O)Nc1c(C)cccc1C [Compound 1019] was < 10 µM

// field: EC50; key: COc1ccc(NC(=O)c2cn(C(C)C)cc2C(F)(F)F)cc1S(=O)(=O)Nc1c(C)cccc1C [Compound 1103] ; value = < 10 µM

EC50 reported for this molecule COc1ccc(NC(=O)c2cnn(-c3cccnc3)c2)cc1S(=O)(=O)Nc1c(C)cccc1C [Compound 1106] : 10 to 20 µM
